Target Of Assay: human ether-à-go-go-related gene (hERG) potassium channel (human, UniProt Q12809);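 note: peak tail current of the secondary pulse compared with the same well before compound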
Sequence (Q12809 whole entry, looked up): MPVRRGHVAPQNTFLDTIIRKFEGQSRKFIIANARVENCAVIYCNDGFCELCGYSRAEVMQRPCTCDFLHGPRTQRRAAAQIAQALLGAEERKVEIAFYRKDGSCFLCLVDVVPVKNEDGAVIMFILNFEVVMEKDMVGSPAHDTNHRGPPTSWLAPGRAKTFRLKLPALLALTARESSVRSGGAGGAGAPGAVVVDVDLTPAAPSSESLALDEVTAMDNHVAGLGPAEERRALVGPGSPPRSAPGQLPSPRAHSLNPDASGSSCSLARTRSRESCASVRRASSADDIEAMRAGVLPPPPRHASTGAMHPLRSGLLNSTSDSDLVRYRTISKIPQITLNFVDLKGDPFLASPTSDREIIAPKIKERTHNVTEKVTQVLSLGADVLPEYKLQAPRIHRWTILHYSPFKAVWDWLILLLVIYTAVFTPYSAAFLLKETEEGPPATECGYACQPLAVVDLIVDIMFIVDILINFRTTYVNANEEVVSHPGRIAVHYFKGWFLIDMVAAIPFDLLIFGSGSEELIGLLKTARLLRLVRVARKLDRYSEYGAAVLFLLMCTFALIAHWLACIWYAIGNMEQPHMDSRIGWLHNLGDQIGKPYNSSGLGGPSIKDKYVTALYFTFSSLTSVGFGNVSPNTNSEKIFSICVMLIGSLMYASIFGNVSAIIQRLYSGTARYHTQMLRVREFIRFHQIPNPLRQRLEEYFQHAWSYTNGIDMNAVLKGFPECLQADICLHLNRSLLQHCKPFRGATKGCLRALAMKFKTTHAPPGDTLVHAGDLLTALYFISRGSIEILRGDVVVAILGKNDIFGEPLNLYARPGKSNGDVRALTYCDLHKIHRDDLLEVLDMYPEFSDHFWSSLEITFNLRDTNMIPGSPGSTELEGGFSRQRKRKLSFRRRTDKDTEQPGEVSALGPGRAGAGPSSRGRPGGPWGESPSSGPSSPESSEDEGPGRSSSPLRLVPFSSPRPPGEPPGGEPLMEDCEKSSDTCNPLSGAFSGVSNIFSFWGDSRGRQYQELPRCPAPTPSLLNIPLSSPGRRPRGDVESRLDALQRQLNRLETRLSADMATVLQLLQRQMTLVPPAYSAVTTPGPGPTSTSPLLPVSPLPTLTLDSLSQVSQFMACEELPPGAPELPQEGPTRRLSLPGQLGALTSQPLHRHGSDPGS
Experiment Notes: primary screen, population patch clamp on CHO cells stably expressing hERG; higher = less effect of the substance
Among all 310,000 compounds or so, about 14,000 (4.5%) showed an effect of 50% or more. The effect is printed as a negative number. The sample holds strong results, similar compounds and a random draw of the others, so the mix is not that of the screen.
Lab note: compare hERG current change (%, negative = inhibition) at 10uM against -10%. Equal or greater, write Met. Smaller, write Not met.

Compound: COc1cc(CNCCO)cc(Br)c1OCc1ccccc1.Cl
Category: Not met
//
Compound: CNC(=O)c1ccccc1NC(=O)C1CC(=O)N(c2ccc(OC)cc2)C1 (stereo not shown)
Category: Not met
//
Compound: Cl.OCCNCc1cc(Br)ccc1OCc1ccc(Cl)cc1
Category: Not met
//
Compound: C=CCn1cccc(C(=O)Nc2ccc(F)cc2)c1=O
Category: Not met
//
Compound: CCCOc1ccc(N2CC(C(=O)Nc3ccccc3F)CC2=O)cc1 (stereo not shown)
Category: Met
//
Compound: COc1ccc(N2CC(C(=O)Nc3ccccc3C(=O)NCc3ccco3)CC2=O)cc1 (stereo not shown)
Category: Not met
//
Compound: CCCOc1ccc(N2CC(C(=O)Nc3ccccc3C(=O)NC)CC2=O)cc1 (stereo not shown)
Category: Not met
//
Compound: COc1cccc(N2CCN(c3ccc(N4C(=O)CCC4=O)cc3[N+](=O)[O-])CC2)c1
Category: Met
//
Compound: O=C(Nc1ccc2nn(-c3ccccc3)nc2c1)c1ccc(Br)o1
Category: Met
